- System: Plasmodium berghei
- Assay Protocol: Luciferase/luciferin-expressing antifolate-resistant parasites were used to infect a culture of HepG2 cells that were pre-incubated with compounds. Infected hepatocytes emit light due to the luciferase reaction. Assay results are presented as the percent inhibition of light emission compared to control. […]
- Type: functional
- Test Conditions: sporozoite, HEPG2TOX_HILL_SLOPE 7.49, HEPG2TOX_R_SQUARED 0.517, PBLUC_HILL_SLOPE 14.1, PBLUC_R_SQUARED 0.1, read-out: LUCIFERASE INFECTION ASSAY - IC50
Measured Property: IC50 (µM)
Respond numerically; units are µM and should not be typed.

Fill blank: measured IC50 of the compound COc1cc(Br)c(/C=C2/C(=O)Nc3cc(Cl)ccc32)cc1O is ____.
9.39
